A set of compounds tested on USP7 (Homo sapiens, UniProt Q93009), with measured IC50:

Take a look at these entries with their results.
INSERT INTO results (compound, readout_kind, recorded_measurement) VALUES
  ('CC(=O)NC(C)Cc1cc2nccc(-c3cc(Cl)cc4c3O[C@@H](C(=O)N3CCNCC3)C4)c2s1 (stereo partly drawn)', 'IC50', '< 1 µM'),
  ('Clc1cc2c(c(-c3ccncc3)c1)OC(c1onc3c1CNCC3)C2 (stereo not drawn)', 'IC50', '1 to 10 µM'),
  ('CC[C@H](O)c1cc2nccc(-c3cc(Cl)cc4c3O[C@@H](C(=O)N3CCNCC3)C4)c2s1', 'IC50', '< 1 µM'),
  ('CC[C@@H](O)c1cc2ncnc(-c3cc(Cl)cc4c3O[C@@H](c3onc5c3CNCC5)C4)c2s1', 'IC50', '< 1 µM'),
  ('O=C([C@H]1Cc2cc(Cl)cc(-c3ncnc4ccoc34)c2O1)N1CCNCC1', 'IC50', '10 to 30 µM');

Requested field: IC50. Item: `OC1(c2cc3nccc(-c4cc(Cl)cc5c4O[C@@H](c4onc6c4CNCC6)C5)c3s2)CCC1`
< 1 µM

Here is the next compound: CC(O)(CO)c1cc2nccc(-c3cc(Cl)cc4c3O[C@@H](C(=O)N3CCNCC3)C4)c2s1 (stereo partly drawn)
< 1 µM
